# Relative Proliferation Fold Change NKL 1:10 per record follows
assayTarget: T1, orthogonal hCD122 receptor (hoRb), hCD122 with H133D and Y134F (human, UniProt P14784 27-550); note: reference of the scale not given here
T1 sequence: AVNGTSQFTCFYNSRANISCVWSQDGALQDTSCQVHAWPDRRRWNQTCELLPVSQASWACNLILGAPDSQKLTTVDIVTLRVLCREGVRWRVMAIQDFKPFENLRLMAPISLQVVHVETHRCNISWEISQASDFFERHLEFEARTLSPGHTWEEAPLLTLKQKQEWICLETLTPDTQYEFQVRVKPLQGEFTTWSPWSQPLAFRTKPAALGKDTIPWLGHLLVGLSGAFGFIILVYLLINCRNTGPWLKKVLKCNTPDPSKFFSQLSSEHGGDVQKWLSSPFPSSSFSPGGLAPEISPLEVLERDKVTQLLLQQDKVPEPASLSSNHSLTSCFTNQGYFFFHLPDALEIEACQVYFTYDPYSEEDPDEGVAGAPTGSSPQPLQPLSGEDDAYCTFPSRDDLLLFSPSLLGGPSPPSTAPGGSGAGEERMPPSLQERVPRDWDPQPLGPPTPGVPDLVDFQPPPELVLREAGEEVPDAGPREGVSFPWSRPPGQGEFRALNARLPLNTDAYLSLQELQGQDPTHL
protocolNotes: cell-based or functional assay
metric: Relative Proliferation Fold Change NKL 1:10

# binder, measuredValue
rows = [
    ("T113N, SQVLKA (ligand) APTSSSTKKTQLQLSQLLVLLKAILNGINNYKNPKLTRMLTFKFYMPKKATELKHLQCLEEELKPLEEVLNLAQSKNFHLRPRDLISNINVIVLELKGSETTFMCEYADETANIVEFLNRWITFCQSIISTLT", "3.45 fold"),
    ("ΔL14, SQVLKA (ligand) APTSSSTKKTQLQSQLLVLLKAILNGINNYKNPKLTRMLTFKFYMPKKATELKHLQCLEEELKPLEEVLNLAQSKNFHLRPRDLISNINVIVLELKGSETTFMCEYADETATIVEFLNRWITFCQSIISTLT", "1.6 fold"),
]
